Where do these numbers come from? They come from patent US10253024B2.

Assay: In vivo pharmacokinetics and tolerability, single IP dose
Details: mouse, plasma, 30 mg/kg
Method: The physiochemical properties of various compounds were evaluated. […] In vivo pharmacokinetic (PK) properties of 13 was evaluated. To test this, permeability assessments were performed using MDCK cells.
ATTRIBUTE_MEASURED: half-life (h)
Express your answer in h, writing the number without its unit.

Field half-life (entry C=C1CN(C(=N)N)C[C@@H]2Nc3c(F)cc(Br)cc3[C@]12CCNS(=O)(=O)c1ccc(Cl)cc1 ) reads 2.5
